studySystem: Human TRPA1 (Homo sapiens, UniProt O75762)
Sequence (O75762 whole entry): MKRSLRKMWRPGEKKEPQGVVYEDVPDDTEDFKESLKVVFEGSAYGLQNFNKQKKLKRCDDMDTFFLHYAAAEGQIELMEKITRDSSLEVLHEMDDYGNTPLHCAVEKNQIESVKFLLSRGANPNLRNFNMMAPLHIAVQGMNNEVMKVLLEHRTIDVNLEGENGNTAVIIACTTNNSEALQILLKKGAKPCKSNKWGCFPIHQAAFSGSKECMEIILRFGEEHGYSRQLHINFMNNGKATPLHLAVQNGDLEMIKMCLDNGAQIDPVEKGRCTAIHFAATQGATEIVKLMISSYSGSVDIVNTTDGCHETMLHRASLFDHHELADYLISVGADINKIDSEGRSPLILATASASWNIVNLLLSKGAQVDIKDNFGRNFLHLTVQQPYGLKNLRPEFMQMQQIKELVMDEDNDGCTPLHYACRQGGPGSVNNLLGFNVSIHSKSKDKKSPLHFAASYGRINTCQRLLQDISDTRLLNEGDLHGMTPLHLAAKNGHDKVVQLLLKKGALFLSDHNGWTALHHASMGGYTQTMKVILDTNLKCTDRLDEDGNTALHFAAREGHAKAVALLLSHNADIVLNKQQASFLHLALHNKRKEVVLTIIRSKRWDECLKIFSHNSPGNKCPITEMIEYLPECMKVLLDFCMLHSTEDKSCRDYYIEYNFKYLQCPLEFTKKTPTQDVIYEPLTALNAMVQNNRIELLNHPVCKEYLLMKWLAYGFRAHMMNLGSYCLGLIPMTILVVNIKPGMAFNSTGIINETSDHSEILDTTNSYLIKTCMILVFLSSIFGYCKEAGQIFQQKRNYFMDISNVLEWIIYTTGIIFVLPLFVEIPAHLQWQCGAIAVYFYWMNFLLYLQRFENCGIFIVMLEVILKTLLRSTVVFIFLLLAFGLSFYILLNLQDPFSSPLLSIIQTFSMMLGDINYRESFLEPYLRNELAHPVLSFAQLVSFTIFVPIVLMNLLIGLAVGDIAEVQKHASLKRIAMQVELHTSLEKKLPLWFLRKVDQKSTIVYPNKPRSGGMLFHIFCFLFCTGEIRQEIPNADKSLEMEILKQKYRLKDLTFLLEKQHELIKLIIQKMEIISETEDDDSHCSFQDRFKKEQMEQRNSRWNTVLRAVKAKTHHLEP
testDetails: Assay 1: In vitro cellular testing of TRPA1 modulation (CHO-TREx, Fluo-3 calcium fluorescence, AITC agonist)
Assay type: cell-based
Set-up: expressed in transfected cells; host or cells: CHO-TREx cells (Invitrogen), vector pcDNA4/TO
conditionsUsed: CHO-TREx cells expressing human TRPA1; Fluo-3 fluorescence (FLIPR/Tetra); agonist 15 μM allyl isothiocyanate (AITC); 30 minute antagonist incubation
pIC50: −log10 of the molar value.
pIC50 below 7 gives NO; pIC50 at or above it gives YES.

Reference set (5 entries):
- givenSmiles: "O=C(NCc1cc(-c2ccc(OC(F)(F)F)cc2)ccn1)[C@@H]1C=CCN1S(=O)(=O)c1ccc(Cl)s1"
  className: "YES"
- givenSmiles: "O=C(NCc1ccnc(-c2ccc(C(F)(F)F)cc2)c1)[C@@H]1C=CCN1S(=O)(=O)c1ccc(Cl)s1"
  className: "YES"
- givenSmiles: "C[C@@H](Nc1nc(CNC(=O)[C@@H]2CCCN2S(=O)(=O)c2ccc(Cl)s2)cc(-c2ccc(C(F)(F)F)cc2)n1)c1ccccn1"
  className: "YES"
- givenSmiles: "O=C(NCc1cc(NCc2ccccc2)nc(-c2ccc(C(F)(F)F)cc2)c1)[C@@H]1CC(F)(F)CN1S(=O)(=O)c1ccc(F)cc1"
  className: "NO"
- givenSmiles: "O=C(NCc1cc(-c2ccc(C(F)(F)F)cc2)nc(N2CCN(Cc3ccncc3)CC2)c1)[C@@H]1C=CCN1S(=O)(=O)c1ccc(Cl)s1"
  className: "NO"

API: the following record is the query input.
Evaluate O=C(NCc1nccc(-c2ccc(C(F)(F)F)cc2)n1)[C@@H]1CCCN1S(=O)(=O)c1ccc(Cl)s1 : pIC50 at minimum 7?
NO

----------
studySystem: Human TRPA1 (Homo sapiens)
testDetails: Alternative TRPA1 Ca2+ fluorometry assay (hTRPA1/TREx-HEK293 cells, Fluo-4, FDSS 6000)
Format: cell-based
Set-up: expressed in transfected cells
conditionsUsed: Fluo-4-AM, agonist 6,11-dihydro-5H-dibenzo[b,e]azepine-10-carboxylic acid methyl ester 25 nM, procedure used for Examples 184, 190 to 192, 194 to 316
measurementType: pIC50
Reminder that pIC50 means the negative base-10 logarithm of the concentration expressed in mol/L.

Illustrative cases are given below, each with its answer.
- compound: "O=C(NCc1cc(-c2ccc3c(c2)OCO3)nc(N2CCc3ccccc3C2)n1)[C@@H]1CCCN1S(=O)(=O)c1ccc(F)cc1 [Example 208]"
  studySystem: "Human TRPA1 (Homo sapiens)"
  pIC50: 5.64
- compound: "Cc1ccc(C)c(-c2cc(CNC(=O)[C@@H]3CCCN3S(=O)(=O)c3ccc(F)cc3)nc(N3CCN(c4ccccc4F)CC3)n2)c1 [Example 232]"
  studySystem: "Human TRPA1 (Homo sapiens)"
  pIC50: 5.95
- compound: "O=C(NCc1cc(-c2ccc(OC(F)(F)F)cc2)nc(N2CCN(c3ccccc3F)CC2)n1)[C@@H]1CCCN1S(=O)(=O)c1ccc(F)cc1 [Example 226]"
  studySystem: "Human TRPA1 (Homo sapiens)"
  pIC50: 6.94
- compound: "O=C(NCc1cc(-c2ccc(Cl)cc2)nc(N2CCN(c3ccccc3F)CC2)n1)[C@@H]1CCCN1S(=O)(=O)c1ccc(F)cc1 [Example 241]"
  studySystem: "Human TRPA1 (Homo sapiens)"
  pIC50: 6.38
- compound: "O=C(NCc1cc(-c2ccc3c(c2)OCO3)nc(Nc2ccc(F)cc2)n1)[C@@H]1CCCN1S(=O)(=O)c1ccc(F)cc1 [Example 225]"
  studySystem: "Human TRPA1 (Homo sapiens)"
  pIC50: 5.60

Consider the additional compound presented here.
Memo: O=C(NCc1cc(-c2ccc(C(F)(F)F)cc2)nc(N2CCN(c3ccc(F)cc3)CC2)n1)[C@@H]1CCCN1S(=O)(=O)c1ccc(F)cc1 [Example 304] , reported pIC50: 6.48
